System: IFNα-stimulated STAT-dependent luciferase reporter in Kit225 T cells
Assay: Kit225 T cell assay, IFNα stimulated STAT-dependent luciferase reporter
Type: cell-based, human
Conditions: Kit225 T cells, 200 U/mL human recombinant IFNα, 5-6 hours, luciferase; read-out: IFNα (Kit225 T Cell Inhibition Data)
// reported IC50 for each item listed
endpointName: IC50 (nM)

1. CNC(=O)c1cnc(Nc2ccc(N3CCCC3=O)cn2)cc1Nc1ccccc1S(C)(=O)=O = 240
2. CNC(=O)c1cnc(Nc2cc(C#N)ccn2)cc1Nc1ccc(F)cc1OCF = 90
3. CNC(=O)c1cnc(Nc2ccc(F)cn2)cc1Nc1cc(Cl)ccc1OC = 1170
4. CNC(=O)c1cnc(Nc2ccc(N3CCCC3=O)cn2)cc1Nc1ccc(F)cc1OCF = 410

These entries and their values trace back to patent US9315494B2.
